// data source = patent US4636491A

- assay.details: Solubility of the peptides in pH 7.4 buffer and in H2O
- Type: physicochemical
- condition: pH 7.4, aqueous buffer, pH 7.4 Buffer mg/ml (solubility)
*1 amine or outer side, *2 acyl side, *3 side chain or, on linkers, in order; H or OH if unused. Where a SMILES comes first, the peptide text is derived from it. [ ]: non-standard residue; d: D form. The star is where a group is joined. NH(3-guanidinomethylbenzyl) = NC(N)=NCc1cccc(CN*)c1; NH(3-OCH2COOH-benzyl) = O=C(O)COc1cccc(CN*)c1; X1 = NCc1cccc(CC(N[*:1])C(=O)[*:2])c1; Sta = CC(C)C[C@H](N)[C@@H](O)CC(=O)O; X3 = [O-][n+]1ccc(CN*)cc1; Boc = CC(C)(C)OC(=O)*; X2 = NC(CN*)c1ccccn1
parameter.measured: solubility (µg/mL)
The answer is to be given in µg/mL; state only the numeric part.

Worked examples, 4 compounds total:
CC(C)C[C@H](NC(=O)C[C@H](O)[C@H](CC(C)C)NC(=O)[C@H](Cc1c[nH]cn1)NC(=O)[C@H](Cc1ccccc1)NC(=O)OC(C)(C)C)C(=O)NCc1cccc(OCC(=O)O)c1 [Example 9] (Boc-FH[Sta]L-{NH(3-OCH2COOH-benzyl)})    1500
CC(C)C[C@H](NC(=O)C[C@H](O)[C@H](CC(C)C)NC(=O)[C@H](Cc1c[nH]cn1)NC(=O)[C@H](Cc1ccccc1)NC(=O)OC(C)(C)C)C(=O)NCC(N)c1ccccn1 (stereo partly drawn) [Example 2] (Boc-FH[Sta]L-X2)    320
CC(C)C[C@H](NC(=O)C[C@H](O)[C@H](CC(C)C)NC(=O)[C@H](Cc1c[nH]cn1)NC(=O)[C@H](Cc1ccccc1)NC(=O)OC(C)(C)C)C(=O)NCc1cc[n+]([O-])cc1 [Example 7] (Boc-FH[Sta]L-X3)    3300
CC(C)C[C@H](NC(=O)C[C@H](O)[C@H](CC(C)C)NC(=O)[C@H](Cc1c[nH]cn1)NC(=O)[C@H](Cc1ccccc1)NC(=O)OC(C)(C)C)C(=O)NC(Cc1cccc(CN)c1)C(=O)O (stereo partly drawn) [Example 4] (Boc-FH[Sta]L[X1]-OH)    1300

Now for a further compound.
# solubility lookup, item CC(C)C[C@H](NC(=O)C[C@H](O)[C@H](CC(C)C)NC(=O)[C@H](Cc1c[nH]cn1)NC(=O)[C@H](Cc1ccccc1)NC(=O)OC(C)(C)C)C(=O)NCc1cccc(CN=C(N)N)c1 [Example 3] (Boc-FH[Sta]L-{NH(3-guanidinomethylbenzyl)})
770

---

- assay.details: Solubility of the peptides in pH 7.4 buffer and in H2O
- Type: physicochemical
- condition: water, H2O; read-out: H2O mg/ml (solubility)
Where a SMILES comes first, the peptide text is derived from it. [ ]: non-standard residue; d: D form. The star is where a group is joined. ξ: configuration not given here. Sta = CC(C)C[C@H](N)[C@@H](O)CC(=O)O; ξPhg = NC(C(=O)O)c1ccccc1; Boc = CC(C)(C)OC(=O)*
parameter.measured: solubility (mg/mL)
Entry rule: numbers only, all in mg/mL.

CC(C)C[C@H](NC(=O)C[C@H](O)[C@H](CC(C)C)NC(=O)[C@H](Cc1c[nH]cn1)NC(=O)[C@H](Cc1ccccc1)NC(=O)OC(C)(C)C)C(=O)NCCC(N)C(=O)O (single isomer, unassigned) [Example 5 (Isomer A)]    1.72

Proceed to the following item.
Request the reported solubility associated with CC(C)C[C@H](NC(=O)C[C@H](O)[C@H](CC(C)C)NC(=O)[C@H](Cc1c[nH]cn1)NC(=O)[C@H](Cc1ccccc1)NC(=O)OC(C)(C)C)C(=O)NC(C(=O)O)c1ccccc1 (some centres unmarked) [Example 8] (Boc-FH[Sta]L[ξPhg]-OH)
0.6
